The measurements presented in this section are drawn from ChEMBL document CHEMBL1134410.

- Test Target: UniProtKB P18090
- Method Summary: Increase in BPM in isolated rat atria.
- Type: functional
Measure Name: -Log EC20

C[C@H](NCCc1cc(Br)c(NCC(=O)O)c(Br)c1)[C@H](O)c1ccc(O)cc1	4.72
C[C@H](NCCc1ccc(NC(C)(C)C(=O)O)cc1Cl)[C@H](O)c1ccc(O)cc1	6.59
C[C@H](NCCc1ccc(NC(C)(C)C(=O)O)cc1)[C@H](O)c1ccc(O)cc1	4.96
C[C@H](Cc1ccc2c(c1)OC(C(=O)O)(C(=O)O)O2)NC[C@H](O)c1cccc(Cl)c1	4.77
C[C@H](NCCc1ccc(NCC(=O)O)c(Cl)c1Cl)[C@H](O)c1ccc(O)cc1	6.82
C[C@H](NCCc1ccc(NCC(=O)O)cc1)[C@H](O)c1ccc(O)cc1	5.89

1: C[C@H](NCCc1ccc(NCC(=O)O)cc1Cl)[C@H](O)c1ccc(O)cc1
2: C[C@H](NCCc1ccc(N(CC(=O)O)CC(=O)O)cc1)[C@H](O)c1ccc(O)cc1
Qu. Of the two listed items, which has the higher -Log EC20? First: 1 Second: 2 Refer to your chosen entry by its label in the reply.
Ans. 1

---

- Test Target: Beta-2 adrenergic receptor (Rattus norvegicus)
- Sequence (P10608 whole entry): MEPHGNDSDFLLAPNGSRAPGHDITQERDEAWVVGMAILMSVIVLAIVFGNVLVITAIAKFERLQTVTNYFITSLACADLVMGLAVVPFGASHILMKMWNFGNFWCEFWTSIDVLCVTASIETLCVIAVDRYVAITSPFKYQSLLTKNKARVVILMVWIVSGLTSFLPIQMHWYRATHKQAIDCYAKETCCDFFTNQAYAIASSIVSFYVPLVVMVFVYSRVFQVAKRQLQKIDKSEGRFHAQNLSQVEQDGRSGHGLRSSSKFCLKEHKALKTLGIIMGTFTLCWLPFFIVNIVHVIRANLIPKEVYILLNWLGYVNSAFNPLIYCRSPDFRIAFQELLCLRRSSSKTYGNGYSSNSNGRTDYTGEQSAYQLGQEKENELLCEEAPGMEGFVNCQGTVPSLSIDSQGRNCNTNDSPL
- Method Summary: Agonistic activity towards beta-2 adrenoceptor. Mean concentration required to produce 50% inhibition of uterine contraction
Measure Name: IC50 (nM)

Field: example entries. Status: answers known.
C[C@H](NCCc1ccc(NCC(=O)O)cc1Cl)[C@H](O)c1ccc(O)cc1	61.7
CC(NCCc1ccc(O)cc1)C(O)c1ccc(O)cc1 (stereo unspecified)	24
C[C@H](NCCc1cc(Cl)c(NCC(=O)O)cc1Cl)[C@H](O)c1ccc(O)cc1	1290

1: C[C@H](NCCc1ccc(N(CC(=O)O)CC(=O)O)cc1)[C@H](O)c1ccc(O)cc1
2: C[C@H](NCCc1ccc(NC(C)(C)C(=O)O)cc1Cl)[C@H](O)c1ccc(O)cc1
Qu. Of the two listed items, which has the higher IC50? First: 1 Second: 2 Refer to your chosen entry by its label in the reply.
Ans. 2
(2: 1410 nM, 1: 282 nM)

---

- Test Target: Beta-1 adrenergic receptor (Rattus norvegicus) (UniProt P18090)
- Sequence (P18090 whole entry, looked up): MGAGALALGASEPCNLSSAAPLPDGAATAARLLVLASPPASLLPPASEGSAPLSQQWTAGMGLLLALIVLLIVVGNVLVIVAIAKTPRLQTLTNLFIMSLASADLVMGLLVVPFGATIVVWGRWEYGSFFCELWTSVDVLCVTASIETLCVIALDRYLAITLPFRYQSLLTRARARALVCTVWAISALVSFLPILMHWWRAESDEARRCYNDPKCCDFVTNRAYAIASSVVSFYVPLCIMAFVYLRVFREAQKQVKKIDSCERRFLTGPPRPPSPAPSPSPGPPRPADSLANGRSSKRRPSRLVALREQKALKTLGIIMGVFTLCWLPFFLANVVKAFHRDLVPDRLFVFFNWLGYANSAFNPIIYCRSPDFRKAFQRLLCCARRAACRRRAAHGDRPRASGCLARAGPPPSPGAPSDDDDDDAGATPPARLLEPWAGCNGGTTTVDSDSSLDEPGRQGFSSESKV
- Method Summary: Increase in BPM in isolated rat atria.
- Assay type: functional
Measure Name: -Log EC20

C[C@H](NCCc1cc(Cl)c(NCC(=O)O)c(Cl)c1)[C@H](O)c1ccc(O)cc1	4.54
C[C@H](NCCc1ccc(N(CC(=O)O)Cc2ccccc2)cc1)[C@H](O)c1ccc(O)cc1	6.82
C[C@H](NCCc1cc(Cl)c(NCC(=O)O)cc1Cl)[C@H](O)c1ccc(O)cc1	5.89
CC(NCCc1ccc(O)cc1)C(O)c1ccc(O)cc1 (centres undefined)	6.8
C[C@H](NCCc1ccc(NCC(=O)O)c(Cl)c1)[C@H](O)c1ccc(O)cc1	5.57
C[C@H](NCCc1ccc(N(C)CC(=O)O)cc1)[C@H](O)c1ccc(O)cc1	5.47
C[C@H](NCCc1ccc(NCC(=O)O)c(Br)c1)[C@H](O)c1ccc(O)cc1	5.1
C[C@H](NCCc1ccc(N(C)CC(=O)O)c(Cl)c1)[C@H](O)c1ccc(O)cc1	4.6
C[C@H](NCCc1ccc(NCC(=O)O)c(I)c1)[C@H](O)c1ccc(O)cc1	5.27
